assay: folding stability dG unfold from trypsin proteolysis; higher = more stable
Label Condition met when folding stability dG unfold is at or above 1 kcal/mol; otherwise label Condition not met.

- constructSequence: "SAGKKKKKKLKITIEITYNKETNTVTIKITVDGKEITVEVKAKSKEEALLNALKELEKKLNIKIKEVKLSAG [r5_251_TrROS_Hall]"
  classification: "Condition met"
- constructSequence: "SAGGSAGGSAGGYFIRINNGRTFPFPSPEDAEEIVKTIARPFGHPDMTIEIYRMPPEQFPSAGGSAGGSAGG [r7_839_TrROS]"
  classification: "Condition not met"
- constructSequence: "SAGGSAGGDGDFRVSIDPEELPDGQEYKISIQSPDGKPIAEIPIRIPLPPPKPERDDNGKPKPVSAGGSAGG [r6_487_TrROS]"
  classification: "Condition not met"
- constructSequence: "SAKIEVYELPDGSKEIVFEFGDKVIRVTFFPDYPLAVVEVFDPPKDEVVKTIPVRADDLEDTIKKILEESAG [r14_583_TrMRF]"
  classification: "Condition met"
- constructSequence: "SAGGMGRARLYELEIEVDLHPDETIEGALRRLLGLREDEEILEVEAEVDPVNGKVRIRAVVLVRDPETSAGG [r13_828_TrMRF]"
  classification: "Condition met"
- constructSequence: "SAGGSAGGMPVSVEIELTVPTSPDETPEEALERIREELAPLGVEEVTATPLPDGTVRFRITVPRSAGGSAGG [r6_882_JUSTAS]"
  classification: "Condition met"
- constructSequence: "SAGGSAGGFKIPPGKTIMIQYPDGWMWRIKVKDGNTHMFKSPEEIEKLLNKPGFEIEIEWFPLDSAGGSAGG [r6_433_TrROS]"
  classification: "Condition met"
- constructSequence: "SAGGSAGGSKKVKVTIEYDKETGVVKVTVEDPETGEKYTVTAKFEFDKNGKLVKVEVVSIEKESAGGSAGGS [r12_791_TrROS_Hall]"
  classification: "Condition met"
- constructSequence: "SAGGMNISIEPIGRDNDRWYYMITFPGDANEIKDFIEEFLPPGLPIKVKVLEVDPENGHVTVMIEIPRSAGG [r13_491_TrROS]"
  classification: "Condition met"
- constructSequence: "SAGGMKIIEIEYDEETGKYKFKIKIYDKKTGKLYEIEVEVDKKTGKLSIEEIAKKIAEKLGLPKDIKISAGG [r13_362_TrROS_Hall]"
  classification: "Condition met"
- constructSequence: "SSPALDEKYTAKVDAKVTSPEGKPLATFTIDVLTEEEAKKKIEEFVKELAEKLGRPDLPVTISNITIERVSA [r9_376_JUSTAS]"
  classification: "Condition not met"
- constructSequence: "SAGGSAPNKWKTVDIEFMFPPDNLEEFVDEISKLPGIKASIEPVEYDPEGMYWMKIDITIPPGMKISAGGSA [r15_441_TrROS]"
  classification: "Condition met"
- constructSequence: "SAGGSAGGSAGMAIGLEEILARLDPERIISVEVDEENPLVTVKLRPPSGETKTITFKLSLSAGGSAGGSAGG [r17_374_JUSTAS]"
  classification: "Condition met"
- constructSequence: "SAGPVVTLTVTVEIEVDGVRVEVTVTATLLPDGTVVITATVKVTLPNGETKTVTVTLTFPPGVDEVVLTSAG [r5_829_TrROS_Hall]"
  classification: "Condition met"
- constructSequence: "SAGGGLANLSLEEIRQLLLEKFPELPVEVKVTPVDEKDGVVLVTVRPPLPDGSTVESEEELPLEPGLSAGGS [r16_564_JUSTAS]"
  classification: "Condition not met"
- constructSequence: "SAGGSAGGSAGGNGKKEITIFIKVPPGMPPNEIKDELKDLGLTNIEIERHNNWVMITFRSAGGSAGGSAGGS [r10_868_TrROS]"
  classification: "Condition met"
- constructSequence: "SAGGSAGGSAKPRVKIVEVDEEKKRVLVKTEDGEVVELEGLTPEQIEELAKALGADEVELVSAGGSAGGSAG [r3_78_TrROS_Hall]"
  classification: "Condition not met"
- constructSequence: "SAGGSAGGSAGGTKTIPFPIEEIEVEHNPDNNYYHVTIRFPDNGKPITFMFPPGDTITISAGGSAGGSAGGS [r10_819_TrROS]"
  classification: "Condition not met"
- constructSequence: "SAGGSAGGSAGGSAGVIVSLSPAPPSADTVVELPKGVTVTVTTVNGERVLTTLVPEALLSAGGSAGGSAGGS [r10_355_JUSTAS]"
  classification: "Condition not met"
- constructSequence: "SAGITILFNSAEDAENFAEELAEDYPNMNVTIKIHDPEHGEPVEIPVKIPPPPPKPKRDPDNGNKKYEGSAG [r5_870_TrROS]"
  classification: "Condition not met"
- constructSequence: "SAGGSAGGSAGGSMIIRIETKDGKIIEIEIKEDEDKTPEEIAKELAKKYNIKKIEIFEPSAGGSAGGSAGGS [r4_116_TrROS_Hall]"
  classification: "Condition met"
- constructSequence: "SAMVVIKPEGDKIVVEITLPDGSTKVIELPEVEKIEIKGDTLIITDPKTGKKIIPENTTVSNPKIEPAKSAG [r14_83_JUSTAS]"
  classification: "Condition not met"
- constructSequence: "MEFTITVEYDEETNELTVTITYPGYTIEIRIDPDGRIRVEVRMDPGMSEEERKRMQELAEELAKKLEEALKS [r1_468_TrROS_Hall]"
  classification: "Condition met"
- constructSequence: "SMKEGIEAAIDELKEALEKGEGEVRVVLRFEGFVLEITIKPKGYKIEDIEIEPLPDDIPFIREREEVPPESA [r9_308_TrMRF]"
  classification: "Condition met"
- constructSequence: "SAGMKIKIVKIEKEEDGTIRVELEITDPNGNKYRVEAEIDLKDPNKIKIKVINEDTGEEFEIELTIKKPSAG [r5_345_TrROS_Hall]"
  classification: "Condition met"
- constructSequence: "GLTVTLDGNSLTVTADAGDKTVTVTAPVFHPEKGLVTVVTVTATREDGALVLHTESRTIRLPPLPPLHPDLS [r1_100_TrMRF]"
  classification: "Condition met"

---

assay: folding stability dG unfold (combined trypsin and chymotrypsin); higher = more stable
Parameter class (string): assigned from measured folding stability dG unfold. Ranges: Low: < 0.9 kcal/mol; Mid: ≥ 0.9 kcal/mol and < 3 kcal/mol; High: ≥ 3 kcal/mol

- constructSequence: "SMKKNTLTLTVKVKVTVTVVKKKKDGKEEVVKKETVEVTVKVTFLSKEELEKLKKELEKLKKELEELKKKSA [r9_1192_TrROS_Hall]"
  classification: "High"
- constructSequence: "SAGGSPPNITYELTFPDGTVYTDPLPGKSLEELKEYVKSLNFTNVEVTVYEESSEVSTYKVTIPPNESAGGS [r16_700_JUSTAS]"
  classification: "Low"
- constructSequence: "SAGGSAGGSAGEVVRVYPTPDGTTVTITPHPTTYTVTTTSPDGVPTTTPVSPAEVAALGLSAGGSAGGSAGG [r17_127_JUSTAS]"
  classification: "Low"
- constructSequence: "SAGGSAGGSVPLELELTFKLENGSFIVVKAKIEFNPETPEFKVEVLSVEIFLEPEGKIVSDEDFSAGGSAGG [r6_864_TrMRF]"
  classification: "Mid"
- constructSequence: "SAGGSAPRIRVHFWNPNTGQWHHIPVERLKKAIDKNPPGEELEFPIPGYPVKVQVEPDDGTIWIRMSAGGSA [r15_350_TrROS]"
  classification: "Mid"
- constructSequence: "SAGGMPATLEVRLPDGAGAVGVVRADDPDEIIEAARAIPADAPVVLTTDDPAYGRLFLEAGFDVVTLESAGG [r13_476_TrMRF]"
  classification: "Low"
- constructSequence: "SASLEPVATTAVPLPDGTTATLTLYRDPATGRYTVRVTVTHPDGAAETRVLEVDSEEEALSRVVLSPGASAG [r14_749_JUSTAS]"
  classification: "High"
- constructSequence: "SAGGSAGGSAGMWIDEDTIRRLAALLGYPGKVEVVRLEDGSLLVVVYGDTEPGVLLFPLDSAGGSAGGSAGG [r11_410_TrMRF]"
  classification: "Mid"
- constructSequence: "SAGGSAGGSAGGMELPNLVPVETVPVGDSTVRLYELPGKPLRVTVTENGDNVTVELEEPPSAGGSAGGSAGG [r7_940_JUSTAS]"
  classification: "Low"
- constructSequence: "SAGKPRPVEIDFPMPPGFPNMPPEEMANMIARELDENGLKIEPKNMNPGEPYVRYTVEVNGKPILEITFSAG [r5_80_TrROS]"
  classification: "Mid"
- constructSequence: "SAGGMKVEDFVLELPTPEGKKILVEAVKVTTDPEAGLISVELKTPDKKEKLTLSPDEYVRGPSPEEFLKSAG [r5_15_JUSTAS]"
  classification: "Low"
- constructSequence: "SAGMTITVESLEDALALAEELAEKYPGLKVTVEVRLSPDGKTVEVRVTIEPAPPVKVVDPETGEEVEEESAG [r5_870_TrROS_Hall]"
  classification: "High"
